tgt: GSK-3β (Homo sapiens, UniProt P49841)
Sequence (P49841 whole entry): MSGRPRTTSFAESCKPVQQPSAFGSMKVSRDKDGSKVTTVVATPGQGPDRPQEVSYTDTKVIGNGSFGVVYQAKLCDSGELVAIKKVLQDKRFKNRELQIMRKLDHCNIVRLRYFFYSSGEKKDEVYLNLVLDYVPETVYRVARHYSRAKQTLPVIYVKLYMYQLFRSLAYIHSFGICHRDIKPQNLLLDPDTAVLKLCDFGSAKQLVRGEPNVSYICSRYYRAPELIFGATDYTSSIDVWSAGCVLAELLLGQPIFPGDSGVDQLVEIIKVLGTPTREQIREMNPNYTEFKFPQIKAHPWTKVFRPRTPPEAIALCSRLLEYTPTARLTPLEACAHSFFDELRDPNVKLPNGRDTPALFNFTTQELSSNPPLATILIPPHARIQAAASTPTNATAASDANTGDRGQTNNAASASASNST
assay endpoint: IC50 (µM)

{"chemical structure": "C=C(C)[C@@H]1CC[C@]2(CO)CC[C@]3(C)[C@H](CC[C@@H]4[C@@]5(C)CC[C@H](O)C(C)(C)[C@@H]5CC[C@]43C)[C@@H]12", "tgt": "GSK-3β (Homo sapiens, UniProt P49841)", "assay endpoint": "IC50", "readout unit": "µM", "value observed": 1.06}

====

tgt: CK1ε (Homo sapiens, UniProt P49674)
Sequence (P49674 whole entry): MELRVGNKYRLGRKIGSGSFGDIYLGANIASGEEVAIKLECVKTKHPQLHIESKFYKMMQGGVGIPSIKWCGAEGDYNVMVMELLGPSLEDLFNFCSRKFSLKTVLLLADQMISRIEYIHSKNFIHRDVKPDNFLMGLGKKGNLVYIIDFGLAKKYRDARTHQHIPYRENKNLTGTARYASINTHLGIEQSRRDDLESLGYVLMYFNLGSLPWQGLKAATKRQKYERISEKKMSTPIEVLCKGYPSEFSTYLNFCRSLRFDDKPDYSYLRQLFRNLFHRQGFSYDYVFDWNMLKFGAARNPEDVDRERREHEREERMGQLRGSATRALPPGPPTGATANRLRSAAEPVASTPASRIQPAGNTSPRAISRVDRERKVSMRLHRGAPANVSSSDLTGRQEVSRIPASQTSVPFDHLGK
assay endpoint: IC50 (nM)

{"chemical structure": "C=C(C)[C@@H]1CC[C@]2(CO)CC[C@]3(C)[C@H](CC[C@@H]4[C@@]5(C)CC[C@H](O)C(C)(C)[C@@H]5CC[C@]43C)[C@@H]12", "readout unit": "nM", "value observed": 2110}

====

tgt: VEGFR2 (Homo sapiens, UniProt P35968)
Sequence (P35968 20-1356): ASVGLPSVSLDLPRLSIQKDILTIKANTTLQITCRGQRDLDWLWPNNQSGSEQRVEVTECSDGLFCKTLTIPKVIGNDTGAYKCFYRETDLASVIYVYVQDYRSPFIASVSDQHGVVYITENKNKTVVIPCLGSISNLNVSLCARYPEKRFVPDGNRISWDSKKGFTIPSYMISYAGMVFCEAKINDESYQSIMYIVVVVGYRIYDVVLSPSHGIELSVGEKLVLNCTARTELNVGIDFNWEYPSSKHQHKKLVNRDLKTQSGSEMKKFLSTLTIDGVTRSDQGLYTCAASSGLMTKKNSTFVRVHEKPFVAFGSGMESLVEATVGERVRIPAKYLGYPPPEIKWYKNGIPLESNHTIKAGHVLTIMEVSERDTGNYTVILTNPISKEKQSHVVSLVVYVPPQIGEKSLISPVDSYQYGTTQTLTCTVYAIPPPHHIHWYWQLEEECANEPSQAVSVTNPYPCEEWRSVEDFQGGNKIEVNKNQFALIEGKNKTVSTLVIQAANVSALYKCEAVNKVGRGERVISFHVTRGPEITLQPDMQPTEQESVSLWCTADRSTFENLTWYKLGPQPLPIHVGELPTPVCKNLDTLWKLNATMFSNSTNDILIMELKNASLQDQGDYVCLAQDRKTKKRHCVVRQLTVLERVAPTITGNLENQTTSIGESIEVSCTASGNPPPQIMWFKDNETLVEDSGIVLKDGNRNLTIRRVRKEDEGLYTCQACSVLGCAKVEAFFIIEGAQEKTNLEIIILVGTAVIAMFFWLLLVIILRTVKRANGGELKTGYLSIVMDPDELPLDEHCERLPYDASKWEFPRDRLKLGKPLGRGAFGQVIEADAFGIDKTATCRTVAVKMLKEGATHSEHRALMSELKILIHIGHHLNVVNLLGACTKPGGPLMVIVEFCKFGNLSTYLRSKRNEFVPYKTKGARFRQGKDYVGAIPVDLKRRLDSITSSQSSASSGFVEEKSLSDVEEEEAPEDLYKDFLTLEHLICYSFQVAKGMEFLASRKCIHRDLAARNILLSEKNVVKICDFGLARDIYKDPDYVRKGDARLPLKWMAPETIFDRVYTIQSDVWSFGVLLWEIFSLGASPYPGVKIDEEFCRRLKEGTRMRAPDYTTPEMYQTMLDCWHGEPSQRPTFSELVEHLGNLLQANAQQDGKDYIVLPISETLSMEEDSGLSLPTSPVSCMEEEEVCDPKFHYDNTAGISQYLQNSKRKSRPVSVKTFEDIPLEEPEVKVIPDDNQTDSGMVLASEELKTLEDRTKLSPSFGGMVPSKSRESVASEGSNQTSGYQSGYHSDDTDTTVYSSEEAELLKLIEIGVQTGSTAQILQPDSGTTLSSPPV
pIC50: −log10 of the molar value.
assay endpoint: pIC50

{"compound": "C=C(C)[C@@H]1CC[C@]2(CO)CC[C@]3(C)[C@H](CC[C@@H]4[C@@]5(C)CC[C@H](O)C(C)(C)[C@@H]5CC[C@]43C)[C@@H]12 [Betulin, 3-lup-20(29)-ene-3β,28-diol]", "assay endpoint": "pIC50", "value observed": 5.61}

====

tgt: JAK3 (Homo sapiens, UniProt P52333)
Sequence (P52333 1-1124): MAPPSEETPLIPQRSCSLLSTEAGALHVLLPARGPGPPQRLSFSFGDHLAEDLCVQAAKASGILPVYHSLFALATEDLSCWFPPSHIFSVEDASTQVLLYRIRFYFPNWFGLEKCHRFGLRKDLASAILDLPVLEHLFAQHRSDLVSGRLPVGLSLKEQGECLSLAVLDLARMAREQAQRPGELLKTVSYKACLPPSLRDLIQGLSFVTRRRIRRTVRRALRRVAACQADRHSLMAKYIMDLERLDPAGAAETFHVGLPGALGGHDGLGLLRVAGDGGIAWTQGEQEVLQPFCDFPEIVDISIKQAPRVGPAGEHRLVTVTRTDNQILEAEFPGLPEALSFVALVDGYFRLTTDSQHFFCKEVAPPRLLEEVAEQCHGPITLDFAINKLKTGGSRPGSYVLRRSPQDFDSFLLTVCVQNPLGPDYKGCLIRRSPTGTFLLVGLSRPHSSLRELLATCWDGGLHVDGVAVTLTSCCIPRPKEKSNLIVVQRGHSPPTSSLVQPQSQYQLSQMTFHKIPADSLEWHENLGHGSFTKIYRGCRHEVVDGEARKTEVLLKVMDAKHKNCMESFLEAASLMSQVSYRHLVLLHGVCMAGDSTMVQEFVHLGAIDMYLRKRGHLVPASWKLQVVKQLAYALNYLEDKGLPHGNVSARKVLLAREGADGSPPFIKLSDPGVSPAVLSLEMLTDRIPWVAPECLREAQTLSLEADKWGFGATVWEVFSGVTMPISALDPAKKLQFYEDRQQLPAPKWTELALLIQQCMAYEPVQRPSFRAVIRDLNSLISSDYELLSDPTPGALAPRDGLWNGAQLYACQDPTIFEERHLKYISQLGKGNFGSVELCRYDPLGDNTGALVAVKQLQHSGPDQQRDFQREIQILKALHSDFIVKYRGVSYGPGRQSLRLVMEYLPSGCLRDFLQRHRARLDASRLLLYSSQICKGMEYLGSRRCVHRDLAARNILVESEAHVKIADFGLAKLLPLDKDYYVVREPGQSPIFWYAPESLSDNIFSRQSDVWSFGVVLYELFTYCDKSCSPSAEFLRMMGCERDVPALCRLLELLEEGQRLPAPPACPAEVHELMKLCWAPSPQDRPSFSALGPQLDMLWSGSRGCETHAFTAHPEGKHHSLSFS
pIC50: −log10 of the molar value.
assay endpoint: pIC50

{"chemical structure": "C=C(C)[C@@H]1CC[C@]2(CO)CC[C@]3(C)[C@H](CC[C@@H]4[C@@]5(C)CC[C@H](O)C(C)(C)[C@@H]5CC[C@]43C)[C@@H]12", "tgt": "JAK3 (Homo sapiens, UniProt P52333)", "value observed": 5.97}

====

tgt: NEK6 (Homo sapiens)
Sequence (Q9HC98 whole entry): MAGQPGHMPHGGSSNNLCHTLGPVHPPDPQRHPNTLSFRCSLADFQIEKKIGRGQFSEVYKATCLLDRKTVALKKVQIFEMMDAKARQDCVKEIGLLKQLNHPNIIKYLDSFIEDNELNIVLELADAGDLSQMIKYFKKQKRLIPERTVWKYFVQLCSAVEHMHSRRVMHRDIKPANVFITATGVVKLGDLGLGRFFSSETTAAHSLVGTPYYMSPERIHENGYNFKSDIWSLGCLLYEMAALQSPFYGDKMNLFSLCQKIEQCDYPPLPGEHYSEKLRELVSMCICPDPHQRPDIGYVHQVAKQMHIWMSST
pIC50: −log10 of the molar value.
assay endpoint: pIC50

{"compound": "C=C(C)[C@@H]1CC[C@]2(CO)CC[C@]3(C)[C@H](CC[C@@H]4[C@@]5(C)CC[C@H](O)C(C)(C)[C@@H]5CC[C@]43C)[C@@H]12 [Betulin, 3-lup-20(29)-ene-3β,28-diol]", "assay endpoint": "pIC50", "value observed": 5.52}

Cited source: paper PMC8347092
